Measured RP-LC retention time by item
assay: gradient 5% acetonitrile 3 min, to 50% in 2 min, to 85% in 15 min, held 3 min, 100 µL/min; conditions: column: Zorbax Extend-C18 2.1 x 50 mm; eluents: water / acetonitrile, 0.1% formic acid
# unit: s | format: bare number

>>> observed_value("O=C(CCC(=O)N1CC2CCCN2c2ccccc21)NCCN1CCCCCC1 (stereo not given)")
646
>>> observed_value("Cn1ncc2c3ccccc3n(CCCC(=O)NCCc3c[nH]c4ccccc34)c2c1=O")
815
>>> observed_value("CCC(=O)Nc1ccc(-n2cnc(C(=O)NCc3ccc(C)c(C)c3)c2)nc1")
791
>>> observed_value("CCn1c(=O)c2cc(C(=O)NCCc3ccc(OC)c(OC)c3)nn2c2ccccc21")
910
>>> observed_value("O=C(CCNc1c(-c2ccccc2)nc2cnccn12)NCc1ccc(F)cc1")
687

Param item = `CN(C)C(=O)c1ccc2c(c1)nc(CN1CCN(C(=O)c3ccccc3)CC1)n2C` ; retrieve measured RP-LC retention time.
597

Check `CC(C)(C)c1csc(-c2csc(S(=O)(=O)Nc3cccc(Cl)c3F)c2)n1` too.
1330

What about this compound? Cn1ncc(N2CCCC(CC(=O)O)C2)cc1=O (stereo not given)
613

Please do the same for `CN(C)c1ncncc1N1CCC(C(=O)NC2CCCCCC2)CC1` as well.
624

Now the compound CCCN(CC1CCOC1)C(=O)c1ccccc1Cl (stereo not given)
788

This collection of values is drawn from the METLIN SMRT retention time set (Domingo-Almenara et al. 2019).
